The molecules listed here are annotated with their half-life.
Conditions: rat; liver microsomes; pH 7.4; 15.0 min; 1.0 µM
Value expressed in min; do not type the unit.

Ask | Bench note: what half-life did "CC(C)(C)c1ccc(OCc2nn3c(-c4ccncc4)nnc3s2)cc1" show?
Reply | 19.6

Ask | Input Cc1ccc(N2CCN(c3cnn(-c4nc5ccccc5s4)c(=O)c3Cl)CC2C)cc1 (stereo not given)
Reply | 10.5

* * *

Settings: rat; liver microsomes; pH 7.4; 15.0 min; 1.0 µM
Each record is given yes (1) if its reported half-life is strictly below 10 min. Records at or above 10 min are given no (0).

Ask | Does the reported half-life of the following compound sit strictly below 10 min? COc1ccc(C2Nc3ccccc3C(=O)N2Cc2cccnc2)cc1COc1c(C)cc(NC(C)=O)cc1C (stereo not drawn)
Reply | yes (1)

* * *

Details: rat; liver microsomes; pH 7.4; 15.0 min; 1.0 µM
The compounds listed here are annotated with their half-life.
Value expressed in min; do not type the unit.

Solved entries (count: 10):
NC1(c2ccccc2Cl)CCCCC1=O (stereo unspecified)
11
CCN1C(=O)c2ccccc2S(=O)c2ccc(C(=O)NCc3ccccc3)cc21 (stereo unspecified)
8.12
Cn1nnnc1Sc1ncnc2scc(-c3ccccc3F)c12
5.28
O=C1CCc2cc(S(=O)(=O)Nc3ccc(F)c(Cl)c3)ccc2N1
20.5
Cc1csc2nc(-c3cccc(NC(=O)c4cccc(F)c4)c3)cn12
3.67
CC1=C(C(=O)Nc2ccccc2)C(c2ccccc2Cl)N=C(Nc2nc3ccccc3o2)N1 (stereo unspecified)
24
Cc1ccc(S(=O)(=O)Nc2ccc(C(=O)Nc3nc(-c4ccc(Cl)cc4)cs3)cc2)cc1
16
O=C(c1cccs1)c1nonc1C(=O)c1cccs1
1.49
COc1ccc(CN2CCN(C(=O)c3cc4c(s3)CCC4)CC2)cc1
1.9
CN(C)c1cccc(-c2cnc(N3CCC(c4ncc[nH]4)CC3)s2)c1
4.63

# evaluate next
Ask | Bench note: what half-life did "COc1ccc(CN2CCNc3cc(Nc4ccccc4)ncc3C2)cn1" show?
Reply | 10

* * *

Conditions: rat; liver microsomes; pH 7.4; 15.0 min; 1.0 µM
The compounds listed here are annotated with their half-life.
Value expressed in min; do not type the unit.

Solved entries (count: 5):
Cc1cc(-c2nnc3n2CCCCC3)c(C)n1-c1cccnc1
15
O=C(Nc1nc(-c2ccccc2)cs1)c1ccccc1[N+](=O)[O-]
17
Cc1cccc2c(C(=O)O)cc(-c3cccs3)nc12
8.96
O=C(/C=C/c1cn(CC(O)CN2CCCCCC2)c2ccccc12)c1ccc(Br)cc1 (stereo unspecified)
24.2
CCCCCN(CCC12CC3CC(CC(C3)C1)C2)C(=O)NCCCc1ccncc1
3.7

Ask | Bench note: what half-life did "COc1cc(Nc2nc(-c3ccncc3)nc3ccccc23)ccc1NS(C)(=O)=O" show?
Reply | 22

Ask | Input "Clc1cccc(COc2cncc(N3CCNCC3)n2)c1"
Reply | 2.55

* * *

Details: rat; liver microsomes; pH 7.4; 15.0 min; 1.0 µM
experimental-endpoint: half-life (min)
Value expressed in min; do not type the unit.

Solved entries (count: 3):
CCCc1ccc(NC(=O)c2ccc3c(c2)NC(=O)CS3)cc1
1.5
COc1ccc(NC(=O)c2c(C)cccc2C)cc1[S+](=O)([O-])N1CCCCCC1
1.8
NC(=O)C1CCN(c2nc(-c3ccccc3Cl)cs2)CC1
4.02

Ask | Bench note: what half-life did "COc1ccc(-n2cnc3cc(C(=O)N4CCCCC4)ccc32)cc1" show?
Reply | 20.7

Ask | Input "O=S(=O)(Nc1ccc(-c2cccnc2)c2cccnc12)c1cccc(C(F)(F)F)c1"
Reply | 1.25

* * *

The molecules listed here are annotated with their log10(half-life).
Details: rat; liver microsomes; pH 7.4; 15.0 min; 1.0 µM
Annotation: log10 of half-life, min basis.

Solved entries (count: 6):
Nc1nc2c(s1)C(c1c(Cl)cccc1Cl)CC(=O)N2 (stereo not given)
1.38
c1ccc(Nc2nc(NCc3ccco3)c3ccccc3n2)cc1
0.32
Cc1nn2c(c1-c1ccccc1-c1ccccc1)N(Cc1ccc(C(=O)O)s1)CCC2
0.89
COc1ncccc1-c1cc2[nH]ccc2c(C(=O)NCc2c(C)cc(C)[nH]c2=O)n1
0.74
O=[S+]([O-])(Nc1cccc2ccccc12)c1ccc(NCc2ccc(Cl)cc2O)cc1
0.73
CCOc1cc(CNc2ccc(O)cc2)ccc1OCc1ccc(Cl)cc1
0.58

# evaluate next
Ask | Bench note: what log10(half-life) did CCn1c(C(=O)N2CCCC(C(=O)NCCc3ccc(C)cc3)C2)cc2sccc21 (stereo not given) show?
Reply | 0.23

* * *

The compounds listed here are annotated with their log10 of half-life.
Details: rat; liver microsomes; pH 7.4; 15.0 min; 1.0 µM
Annotation: log10 of half-life, min basis.

Solved entries (count: 10):
COc1ccc(-n2c(C)cc(C3=NNC(=NC4CC4)SC3)c2C)cc1
1.07
COCC(C)NCc1cc2ccc(OC)cc2nc1N1CCN(c2ccc(F)cc2)CC1 (stereo not given)
1.02
Cn1cc(Cl)c(C2N=C(Nc3nc4ccccc4o3)NC3=C2C(=O)CCC3)n1 (stereo not given)
0.89
NC(=O)C1CCN(c2nccc(-c3ccc(Br)cc3)n2)CC1
1.29
Cc1ccc(S(=O)(=O)Nc2cc(Cl)c(Cl)cc2C(=O)Nc2nc(-c3ccccc3)cs2)cc1
1.11
Clc1ccccc1-c1nnc2sc(-c3ccc4c(c3)OCO4)nn12
0.23
Cc1cccc(-n2nc(C)c3c2NC(=O)CSC3c2ccccc2Cl)c1 (stereo not given)
0.21
CC(C)CS(=O)(=O)c1oc(-c2ccc(F)cc2)nc1S(=O)(=O)c1ccccc1
0.07
NC(=O)c1ccc(-c2ncc3cnc(-c4cccc(F)c4)cn23)cc1
1.32
COc1ncc(-c2ccc3c(Nc4cc(Oc5cc(F)cc(F)c5)cc(C(=O)O)c4)c(S(=O)(=O)NC4CC4)cnc3c2)c(OC)n1
0.99

Ask | Bench note: what log10 of half-life did "Brc1ccc(-c2csc(N3CCCCC3)n2)cc1" show?
Reply | 0.54

Ask | Input O=C(NC1CCCN(c2cc(-c3ccc(F)cc3)[nH]n2)C1)c1ccc2ncccc2c1 (stereo not given)
Reply | 1.21

* * *

Settings: rat; liver microsomes; pH 7.4; 15.0 min; 1.0 µM
experimental-endpoint: half-life (min)
Value expressed in min; do not type the unit.

Solved entries (count: 2):
O=C(Nc1nc(-c2ccccc2)cs1)c1ccncc1NS(=O)(=O)c1ccccc1
13
Cc1ccc(NC(=O)NCC2CCN(Cc3cccc(Cl)c3)CC2)cc1Cl
14.1

# evaluate next
Ask | Bench note: what half-life did "CC(C)c1ccccc1-c1ncc(F)c(NCc2ccc(-c3ccn[nH]3)cc2)n1" show?
Reply | 2.8

* * *

Settings: rat; liver microsomes; pH 7.4; 15.0 min; 1.0 µM
experimental-endpoint: half-life (min)
Value expressed in min; do not type the unit.

Cc1ccc(S(=O)(=O)Nc2cnccc2C(=O)Nc2cccc3ccccc23)cc1
5.6
CN(C)S(=O)(=O)c1cccc(NC(=O)c2ccc[nH]2)c1
10.5
Cc1cccc(CS(=O)(=O)c2ncc(Cl)c(C(=O)Nc3nc4ccc(F)cc4s3)n2)c1
1.43
CCOc1ccc(-c2csc(N3CCC(C(N)=O)CC3)n2)cc1
9.24

Ask | Bench note: what half-life did "Cc1cc(C(=O)Nc2nnc(C3CCCCC3)s2)cs1" show?
Reply | 7.1

* * *

Settings: rat; liver microsomes; pH 7.4; 15.0 min; 1.0 µM
The compounds listed here are annotated with their log10 half-life.
Annotation: log10 of half-life, min basis.

N#Cc1cccc(NC(=O)c2sc3nc4c(cc3c2N)N2CCC4CC2)c1
1.41
Fc1cc(Nc2nc(-c3ccncc3)nc3ccccc23)ccc1OCC(F)(F)F
1.45
CN(C)CCNC(=O)c1nc(-c2ccccc2)cc2[nH]ccc12
0.28

Ask | Bench note: what log10 half-life did "COc1ccc(OC)c(-c2nnc3ccc(-c4ccc(OC)c(O[C@@H]5CCOC5)c4)nn23)c1" show?
Reply | 0.74

Ask | Input "CN(C)c1ccc2cc(C(=O)N[C@@H](CCCN=C(N)CCl)C(=O)NCc3ccccc3)ccc2c1"
Reply | 0.72

Ask | Input "Cc1cc(C)nc(NC(=S)N2CCN(c3ccc4nsnc4c3)CC2)c1"
Reply | 1.18

* * *

The compounds listed here are annotated with their half-life.
Settings: rat; liver microsomes; pH 7.4; 15.0 min; 1.0 µM
Value expressed in min; do not type the unit.

Solved entries (count: 8):
CC(C)c1ccccc1-c1ncc(F)c(NCc2ccc(-n3ccnn3)cc2)n1
4.4
Cc1ccc(S(=O)(=O)Nc2ccccc2C(=O)Nc2nc(-c3ccccc3)c(C)s2)cc1
6.3
NC(=O)C1CCN(c2nc(-c3ccccc3C(F)(F)F)cs2)CC1
5.58
O=C1CCCC2=C1C(c1[nH]ncc1Cl)N=C(Nc1nc3ccccc3o1)N2 (configuration not stated)
13.5
CCOc1ccc(NC(=O)c2cccc(-n3cccc3)c2)cc1S(=O)(=O)N1CCOCC1
3.16
COCCCOc1ccnc(CS(=O)c2nc3ccccc3[nH]2)c1C (configuration not stated)
8.83
Cc1noc(C)c1-c1ccc2ncnc(NCc3ccc4[nH]ccc4c3)c2c1
3.2
CC(=O)c1c(C)[nH]c(C(=O)Nc2cccc([S+](=O)([O-])Nc3ccccc3C)c2)c1C
4.4

# evaluate next
Ask | Bench note: what half-life did OCC(O)CCO/N=C1/C(c2c(O)[nH]c3ccccc23)=Nc2ccccc21 (configuration not stated) show?
Reply | 10
